Molecular target: LCK tyrosine kinase (Homo sapiens, UniProt P06239, C224D/P223M)
Sequence (P06239 223-509 P223M/C224D): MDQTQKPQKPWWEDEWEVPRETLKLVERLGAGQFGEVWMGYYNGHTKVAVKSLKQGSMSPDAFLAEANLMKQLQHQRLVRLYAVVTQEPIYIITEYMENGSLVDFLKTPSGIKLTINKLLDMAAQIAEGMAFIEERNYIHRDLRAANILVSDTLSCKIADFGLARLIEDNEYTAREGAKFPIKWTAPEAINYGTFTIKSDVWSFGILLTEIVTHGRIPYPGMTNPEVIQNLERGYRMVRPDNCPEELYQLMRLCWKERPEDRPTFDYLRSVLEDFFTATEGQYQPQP
Assay: LCK spectrophotometric assay
Format: biochemical
Conditions: Table 1; compound concentration 1 µM; read-out: Lck-P* (% inhibition)
Some molecules, each annotated with its measured inhibition at 1 µM.

Answered cases to consult:
molecule	result
Cc1cc(C)c(C(=O)c2ccc3c(/C=C/c4ccccn4)n[nH]c3c2)cc1N [Reference Example 40(c)]	28%
CCn1nc(C)cc1C(=O)Nc1cccc(Oc2ccc3c(/C=C/c4cn(C)c(C)n4)n[nH]c3c2)c1 [Reference Example 31(f)]	62%
O=C(NNC(=O)c1ccccc1Sc1ccc2c(/C=C/c3ccccn3)n[nH]c2c1)c1cccs1 [Reference Example 35(m)]	61%

Lab note: next molecule to report on.
What value of inhibition at 1 µM has been reported for the following molecule? CCONC(=O)c1cccc(F)c1Sc1ccc2c(/C=C/c3ccccn3)n[nH]c2c1 [Reference Example 37(a)]
6%

Just for reference, patent EP1614683B1 is where these values come from.
